Assay: AUC in Crl:CD(SD) rat at 10 mg/kg, po administered with 0.5% methylcellulose suspension
Format: ADME, organism-based
Parameters: dose 10 mg/kg, route oral
Conditions: in vivo
Measurement Type: AUC (ng·h/mL)
Form entry: value (ng·h/mL) — number only.

In plain terms, `CC1(C)C[C@@H](c2ccccc2)Nc2c(C(=O)NC34CC5CC(CC(C5)C3)C4)cnn21` has a documented AUC of 591

###

Test: Tmax in Crl:CD(SD) rat at 10 mg/kg, po administered with 0.5% methylcellulose suspension
Type: ADME, organism-based
Parameters: dose 10 mg/kg, route oral
Details: in vivo
Measurement Type: Tmax (h)
Form entry: value (h) — number only.

In plain terms, `CC1(C)C[C@@H](c2ccccc2)Nc2c(C(=O)NC34CC5CC(CC(C5)C3)C4)cnn21` has a documented Tmax of 1.3
